Measured Kd by item
- test-target: T1, PUF4 RNA-binding domain (Saccharomyces cerevisiae, UniProt P25339 537-888)
- T1 sequence: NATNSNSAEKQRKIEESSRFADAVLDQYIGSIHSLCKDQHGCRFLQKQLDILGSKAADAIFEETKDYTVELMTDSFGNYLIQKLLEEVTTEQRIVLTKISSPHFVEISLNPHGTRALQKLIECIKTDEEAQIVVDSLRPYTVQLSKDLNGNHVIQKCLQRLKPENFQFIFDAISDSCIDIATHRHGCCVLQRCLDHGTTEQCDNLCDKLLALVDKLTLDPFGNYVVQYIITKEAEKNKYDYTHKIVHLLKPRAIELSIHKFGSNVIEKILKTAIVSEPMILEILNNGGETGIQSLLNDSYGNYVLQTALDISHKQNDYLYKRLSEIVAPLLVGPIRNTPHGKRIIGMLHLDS
- test-protocol: Mg; RNA-MaP; 20 mM Na-HEPES pH 7.4, 30 mM KOAc, 0.75 mM MgCl2, 0.1% Tween-20, 5% glycerol, 0.1 mg/mL BSA, 2 mM DTT; 25 C; 0.0125-409.6 nM protein
- measurement-context: tags: N-His6-TEV cleaved; C-SNAP kept, Cy3B-labelled; label: tethered on chip by stalled RNA polymerase
endpoint-label: Kd

| binder | endpoint-label | result |
| --- | --- | --- |
| UCUCUUUGUAUAUUAUUAAAUCUCUU (ssRNA) [Id_ii_S1_P5E.3_K5.2_C5.2_[C-2T]_[T-1G]_H5.2_A5.1_F5.1_T5.2_[T11A]] | Kd | 0.467 nM |
| UCUCUUCGUGUAUAUACCUCUCUU (ssRNA) [Id_ii_S1_P3E.2_K3.1_C3.2_[T-1G]_H3.1_A3.1_F3.1_T3.2_[T9C]_[A10C]] | Kd | 17.5 nM |
| Ib_S2_P5E.1_K5.1_C5.1_H5.1_[T3C]_A5.1_[A7T]_F5.1_T5.1 (ssRNA) RNA: UUUGAUUAAUAUGAUAUCGUUCUUUCUUGCAUUUUUAUUCUUUCUCGAUAUCAUAUUAAUCUUU | Kd | 676 nM |
| UCUCUUUGUACCGUUUCUCUU (ssRNA) [Ic_S1_P4E.1_K4.1_C4.1_H4.1_A4.1_[T5C]_[A6C]_[T7G]_F4.1_[A9T]_T4.1] | Kd | 142 nM |
| UCUCUUUCUACACUUAUUACAUCUCUU (ssRNA) [Id_iii_S1_P5E.7_K5.3_C5.3_H5.3_A5.1_F5.1_T5.2_[T11C]] | Kd | > 2300 nM |
| UCUCUUUGUACCGCGUCUCUU (ssRNA) [Ic_S1_P4E.1_K4.1_C4.1_H4.1_A4.1_[T5C]_[A6C]_[T7G]_F4.1_[T8C]_[A9G]_T4.1] | Kd | 1120 nM |
| Id_iii_S2_P4E.7_K4.3_C4.3_[T-1A]_H4.3_A4.1_F4.1_T4.2 (ssRNA) RNA: UUUGAUUAAUAUGAUAUCGUUCUUUCUUCAACACUAUUAGUUUCUUUCUCGAUAUCAUAUUAAUCUUU | Kd | > 2300 nM |
| Ic_S2_P3E.1_K3.1_C3.1_H3.1_A3.1_F3.1_[T7A]_[A8C]_T3.1 (ssRNA) RNA: UUUGAUUAAUAUGAUAUCGUUCUUUCUUGUAUAACUUCUUUCUCGAUAUCAUAUUAAUCUUU | Kd | 27.7 nM |
| Ie_S2_P5E.1_K5.1_C5.1_H5.1_A5.1_[+5TTCCT]_F5.1_T5.1 (ssRNA) RNA: UUUGAUUAAUAUGAUAUCGUUCUUUCUUGUAUUUCCUUAUUAUUCUUUCUCGAUAUCAUAUUAAUCUUU | Kd | 13.2 nM |
| Ib_S4_P4E.1_K4.1_C4.1_H4.1_[T3C]_A4.1_[T7A]_F4.1_T4.1 (ssRNA) RNA: UUUGACAACUGAUCGUUCUUUCUUGCAUAAUAUUCUUUCUCGAUCAGUUGUCUUU | Kd | 215 nM |
| Ie_S2_P3E.2_K3.1_C3.2_[+-2CTCT]_H3.1_A3.1_F3.1_T3.2 (ssRNA) RNA: UUUGAUUAAUAUGAUAUCGUUCUUUCUCCUCUUUGUAUAUAUAUUCUUUCUCGAUAUCAUAUUAAUCUUU | Kd | 1.08 nM |
| Id_ii_S2_P5E.4_K5.3_C5.2_[C-2T]_[T-1A]_H5.3_A5.1_F5.1_T5.2_[T11A]_[A12C] (ssRNA) RNA: UUUGAUUAAUAUGAUAUCGUUCUUUCUUAACACUUAUUAACUUCUUUCUCGAUAUCAUAUUAAUCUUU | Kd | > 2300 nM |

Cited source for all entries: paper PMC9352680
